System: Rattus norvegicus
Test: Antihypertensive effect after 1 mg/kg (po) administration in conscious spontaneously hypertensive rat (over a time period of 0-210 minutes).
Format: functional
As shown below, each of these compounds has a reported Max fall in blood pressure value.
Form entry: value (mmHg) — number only.

The compound listed as `CC1(C)Oc2ccc(C#N)cc2[C@@H](n2cc(N)ccc2=O)[C@@H]1O` shows Max fall in blood pressure equal to 34

The compound `CC1(C)C=C(N2CCCCS2(=O)=O)c2cc(C#N)ccc2O1` showed Max fall in blood pressure equal to 25

Data point: `O=c1ccccn1C1=CC2(CCCCC2)Oc2ccc([N+](=O)[O-])cc21` ; Max fall in blood pressure = 22

get_value(item= CC1(C)Oc2ccc(-c3ccncc3)cc2C(N2CCCC2=O)[C@@H]1O (some centres undefined) , readout=Max fall in blood pressure) returns 20

The reported Max fall in blood pressure of the compound CC1(C)Oc2ccc(C#N)cc2C(n2ccc(=O)cc2)[C@@H]1O (some centres undefined) was 21

More entries:
Just so you know, measured Max fall in blood pressure for `N#Cc1ccc2c(c1)C(n1ccccc1=O)=CC1(CCCC1)O2` came out at 26

Recorded result, `CC1(C)C=C(n2ncccc2=O)c2cc(C#N)ccc2O1` , Max fall in blood pressure: 23

The compound listed as CC1(C)Oc2ccc(C#N)cc2C(n2cccnc2=O)[C@@H]1O (some centres undefined) shows Max fall in blood pressure equal to 20

Measured Max fall in blood pressure, CC1(C)Oc2ccc(C#N)cc2C(n2ccc(=O)nc2)[C@@H]1O (some centres undefined) : 18

Lookup result for CC1(C)Oc2ccc(C#N)cc2C(N2CCCCS2(=O)=O)[C@@H]1O (some centres undefined) ; measured Max fall in blood pressure: 30

The reported Max fall in blood pressure of the compound `COc1ccn(C2=CC(C)(C)Oc3ccc(C#N)cc32)c(=O)c1` was 113

Item: `CC(=O)c1ccc2c(c1)[C@@H](n1ccccc1=O)[C@H](O)C(C)(C)O2` | Max fall in blood pressure: 38

Sure, the documented Max fall in blood pressure for `COC(=O)c1ccc2c(c1)[C@@H](n1ccccc1=O)[C@H](O)C(C)(C)O2` is 49

The compound listed as `CC1(C)C=C(n2cc(N)ccc2=O)c2cc(C#N)ccc2O1` has a reported Max fall in blood pressure of 94

The reported value for `CC1(C)C=C(n2ccc(=O)cc2)c2cc(C#N)ccc2O1` in terms of Max fall in blood pressure is 48
